tested on: SW-620 colon; experiment: NCI tumour cell line growth inhibition, 48 h
Reported TGI values are given for each entry in this list.

Look over these answered cases.
- compound: "O=C1NNC(=O)C2C3c4ccccc4C(c4ccccc43)C12 (stereo unspecified)"
  TGI: "> 100 µM"
- compound: "COc1ccc(C2CC(=O)c3c(OC)cc(OC)cc3O2)cc1 (stereo unspecified)"
  TGI: "> 100 µM"
- compound: "CCOCNC(=O)N(COCC)COCC"
  TGI: "> 100 µM"
- compound: "O=c1[nH]c(=O)n(C2CC(O)C(CS)O2)cc1F (stereo unspecified)"
  TGI: "> 100 µM"
- compound: "S=C(/N=c1/sc(Nc2ccccc2)nc2sc3c(c12)CCCC3)Nc1ccccc1"
  TGI: "> 62.5 µM"

// TGI value for O=C1CCC(c2ccccc2)C(O)(C(=O)O)C1 (stereo unspecified) : > 100 µM

---

tested on: K-562 leukemia; assay: NCI tumour cell line growth inhibition, 48 h
measure: TGI

Solved entries:
- compound: "COc1cc2c3c(n(CCCCl)c(=O)c2cc1OC)-c1ccccc1C3=O"
  system name: "K-562 leukemia"
  result: "> 100 µM"
- compound: "Cc1cc(C2CCCCC2)n(O)c(=O)c1"
  system name: "K-562 leukemia"
  result: "> 100 µM"
- compound: "CC1=CC(=O)NCCN1C"
  system name: "K-562 leukemia"
  result: "> 100 µM"

Let me check: `O=C(/C=C/c1ccccc1Cl)c1ccccc1Cl` , system K-562 leukemia, measured TGI is 47.7 µM

Summary line: `O=C(CC(=O)N(C(=O)c1ccccc1)c1ccc(Cl)cc1)N/N=C\c1cc(N=Nc2ccccc2Cl)ccc1O` , K-562 leukemia, reported TGI = 36 µM

---

test system: HCT-116 colon; test: NCI tumour cell line growth inhibition, 48 h
Here the recorded TGI is given for each entry.

Some molecules with recorded TGI:
- molecule: "Cc1c2c(nn1-c1ccc(S(=O)(=O)/N=C3\\SCC(=O)N3C(=O)c3ccccc3)cc1)-c1ccccc1CC2"
  measure: "TGI"
  result: "58.8 µM"
- molecule: "CC1=CC(=O)NP(=O)(Oc2ccc(C)cc2)N1 (stereo not given)"
  measure: "TGI"
  result: "> 100 µM"
- molecule: "COc1cc2c(/C=C3/C(=O)Nc4cccc(Cl)c43)c(Cl)n(Cc3ccccc3)c2cc1C"
  measure: "TGI"
  result: "55.6 µM"
- molecule: "O=C(CC(=O)n1nc(-c2ccccc2)c(N=Nc2ccc(Cl)cc2)c1-c1ccccc1)Nc1cccc(Cl)c1"
  measure: "TGI"
  result: "> 100 µM"

Reported TGI ( `CCCCCCCCCCCCCCCCOP(=O)(O)Oc1ccc(/C=C\c2ccc(OP(=O)(O)OCCCCCCCCCCCCCCCC)cc2)cc1` ) = > 100 µM

Entry under test: NCC(=O)NC(CCCC(NC(=O)CN)P(=O)(O)O)P(=O)(O)O (stereo not given) . Its TGI was > 100 µM

Form: molecule = `Cc1cc(O)c(/C=N/C(=S)NCCc2ccccc2)c(=O)o1` ; TGI = > 100 µM

Per the record, `CN(C)CC(CN(C)C)c1ccccn1` has TGI of > 100 µM

---

test system: HOP-62 NSCLC; experiment: NCI tumour cell line growth inhibition, 48 h
measure: TGI (µM)
Report the figure in µM without appending any unit label.

- compound: "COc1cc(C2c3cc4c(cc3[C@H](OCCN(C)C)[C@@H]3COC(=O)C23)OCO4)cc(OC)c1O (stereo not given in full)"
  numeric result: 0.366

Please turn your attention to the following entry.
Entry `CC(C)(C)C1=CC(=CC=C2C=CN(CCCCCCCCCCCO)C=C2)C=C(C(C)(C)C)C1=O` ; TGI = 3.63

---

test system: HCT-116 colon; assay: NCI tumour cell line growth inhibition, 48 h
measure: TGI

In plain terms, `COc1ccc(-n2cc(-c3cc(OC)c(OC)c(OC)c3)[nH]c2=S)cc1OC` has a documented TGI of > 100 µM

Item: `N#Cc1cnsc1` | TGI: > 100 µM

The reported TGI of the compound `CCSc1nc(N2CCOCC2)c2cn[nH]c2n1` was > 100 µM

Measured TGI, `O=C(C[C@@H](C(=O)NCc1cccc(C(F)(F)F)c1)N1C(=O)[C@@H](N2C(=O)OC[C@@H]2c2ccccc2)[C@H]1/C=C/c1ccccc1)NC1CCN(Cc2ccccc2)CC1` : 4.04 µM

---

The reader will find reported GI50 values listed item by item below.
test system: ACHN renal; assay: NCI tumour cell line growth inhibition, 48 h

# GI50 of `CCCCn1c(-c2ccc(C(=O)O/N=C(\N)c3ccc(OC)cc3)cc2)nc(-c2ccccc2)c1-c1ccccc1` = 0.599 µM

---

system: CAKI-1 renal; experiment: NCI tumour cell line growth inhibition, 48 h
measure: TGI

- molecule: "CN(C)CC(CN(C)C)c1ccccn1"
  TGI: "> 100 µM"

Let us move to another entry and its TGI.
# TGI (molecule: CCC1c2[nH]c3ccccc3c2C[C@H]2C(=O)NC(CCC(=O)OC(C)(C)C)C(=O)N12 (stereo partly specified) ) is > 100 µM

---

tested on: UACC-257 melanoma; assay: NCI tumour cell line growth inhibition, 48 h; in the data active = GI50 below about 0.43 µM; inactive = the rest
The reply should name one outcome from active, inactive

- compound smiles: "CC(C)=[CH][Sb]([Br])([CH]=C(C)C)([CH]=C(C)C)[CH]=C(C)C"
  label: "inactive"

Hi team, can someone confirm the assay call for `COc1ccc(S(=O)(=O)N(Cc2ccc3c(n2)C=CC(C)(C)O3)C2CCC2)cc1OC` ?
active

Which outcome did this test record for the molecule `Cc1c2c(nn1-c1ccc(S(=O)(=O)/N=C3\SCC(=O)N3C(=O)c3ccccc3)cc1)-c1ccccc1CC2` ?
inactive

Outcome logged for `COc1ccc(-c2cc3c(nn2)-c2ccccc2C3=O)cc1` in this assay:
inactive

Record request — test call for `COc1cc(-c2c(C#N)c(N)n3c(nc4ccccc43)c2C#N)cc(Br)c1OC`
inactive

---

test system: OVCAR-3 ovarian; assay: NCI tumour cell line growth inhibition, 48 h
measure: GI50

- compound: "COc1cc([C@@H]2c3cc4c(cc3C(O[C@@H]3O[C@@H]5CO[C@@H](c6cccs6)OC5[C@H](O)[C@H]3O)C3COC(=O)[C@@H]32)OCO4)cc(OC)c1O (some centres not stated)"
  measure: "GI50"
  result: "0.248 µM"
- compound: "CCCCCCCCCCC(O)C1CCC(C2CCC(C(O)CCCCC(O)CCCCCC(O)CC3=CC(C)OC3=O)O2)O1 (configuration not stated)"
  measure: "GI50"
  result: "2.16 µM"
- compound: "COc1ccc(-c2cc3c(nn2)-c2ccccc2C3=O)cc1"
  measure: "GI50"
  result: "> 100 µM"
- compound: "N#C/C(C(=S)Nc1ccccc1)=C1/NN=C2c3ccccc3C(=O)NN21"
  measure: "GI50"
  result: "21.2 µM"
- compound: "COc1ccc(OC(=O)O[C@H]2[C@H](O[C@H]3[C@@H](O)COC(O[C@H]4C[C@H]5[C@@H]6CC=C7C[C@@H](O)CC[C@]7(C)[C@H]6CC[C@]5(C)[C@H]4[C@H](C)C(=O)CCC(C)C)[C@@H]3OC(C)=O)OC[C@@H](O)[C@@H]2O)cc1 (some centres not stated)"
  measure: "GI50"
  result: "10.7 µM"

The recorded GI50 for entry CC12CCCC(CC(=O)c3[nH]c4ccccc4c31)C2 (configuration not stated) equals 0.384 µM

Lab note: `Cn1cc(C2=C(c3cn(CCCN=C(N)N)c4ccccc34)C(=O)NC2=O)c2ccccc21` gave GI50 of > 25 µM

---

test system: RXF 393 renal
Would you mind answering with one of these outcomes? TRUE for active, FALSE for inactive

Example results:
- compound: "CC(=O)[O][Hg][c]1c(C)c(C)c(C)c(C)c1C"
  label: "FALSE"
- compound: "Cn1cc(C2=C(c3cn(CCCN=C(N)N)c4ccccc34)C(=O)NC2=O)c2ccccc21"
  label: "FALSE"
- compound: "COc1ccc(-c2cc3c(nn2)-c2ccccc2C3=O)cc1"
  label: "FALSE"
- compound: "COc1ccc(S(=O)(=O)N(Cc2ccc3c(n2)C=CC(C)(C)O3)C2CCC2)cc1OC"
  label: "TRUE"
- compound: "COc1cc([C@@H]2c3cc4c(cc3C(O[C@@H]3O[C@@H]5CO[C@@H](c6cccs6)OC5[C@H](O)[C@H]3O)C3COC(=O)[C@@H]32)OCO4)cc(OC)c1O (stereo partly drawn)"
  label: "TRUE"
- compound: "COc1cc2c3c(n(CCCBr)c(=O)c2cc1OC)-c1ccc(NC(C)=O)cc1C3=O"
  label: "FALSE"

Per the records of this test, what outcome belongs to `CC(C)CSc1nc(Nc2ccccc2)c(C#N)c(-c2ccc(F)cc2)n1` ?
FALSE

Entry COc1ccc(C2CC(=O)c3c(O)c(OC)c(OC)c(OC)c3O2)c(O)c1 (stereo not drawn) : call = ?
TRUE

So what was the verdict on COc1ccc(C2CC(=O)c3c(OC)cc(OC)cc3O2)cc1 (stereo not drawn) in this test?
FALSE

For `COc1ccc(-c2nc(-c3nc4ccc(C)cc4[nH]3)c3ccccn23)cc1` , what call appears in the results of this test?
FALSE

Which outcome was entered for the compound `COc1ccc(/C(=N/Nc2ccc([N+](=O)[O-])cc2)Sc2cc(Cl)c(C)cc2S(N)(=O)=O)cc1` in this test?
FALSE

Please state the recorded outcome for this compound: CC12CCCC(CC(=O)c3[nH]c4ccccc4c31)C2 (stereo not drawn)
FALSE
